tested on: DMS-114 complex spheroids with HUVEC/MSC, growth % test/control; test: Anticancer human tumor DMS-114 cell line growth inhibition [AhR]; settings: second compound 3.16 µM; first compound 1 µM; active compounds read low;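 also: spheroids exposed to agents for 7 days before readout; 100% = DMSO vehicle control wells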
ASSAY ENDPOINT: viability, T/C (%)
All answers are understood in %, so give the number only.

Retrieve viability, T/C measured for COc1ccc([C@@H](O)c2cc(-c3ncnc4cc(N5CCOCC5)ccc34)c(F)cc2Cl)nn1 + Cc1ccccc1N=Nc1ccc(NC(=O)c2ccnn2C)c(C)c1 and print it.
103

Retrieve viability, T/C measured for Nc1ccccc1NC(=O)c1ccc(CNC(=O)OCc2cccnc2)cc1 + CC(CO)NC(=O)c1cc(-c2ccc(Cl)cc2)nn(-c2cnn(C)c2)c1=O and print it.
40.1

Retrieve viability, T/C measured for CC(C)c1c(-c2ccccc2)nc2c(C#N)c[nH]n2c1=O + Cc1ccccc1N=Nc1ccc(NC(=O)c2ccnn2C)c(C)c1 and print it.
96.3

Retrieve viability, T/C measured for COc1cc(C2c3cc4c(cc3C(OC3OC5COC(C)OC5C(O)C3O)C3COC(=O)C23)OCO4)cc(OC)c1O (centres undefined) + Cc1cncc(-c2nc(NCCc3c[nH]c4ccccc34)c3ncn(C(C)C)c3n2)c1 and print it.
21.9

Retrieve viability, T/C measured for COc1ccc([C@@H](O)c2cc(-c3ncnc4cc(N5CCOCC5)ccc34)c(F)cc2Cl)nn1 + CC(CO)NC(=O)c1cc(-c2ccc(Cl)cc2)nn(-c2cnn(C)c2)c1=O and print it.
103

Retrieve viability, T/C measured for Nc1ccccc1NC(=O)c1ccc(CNC(=O)OCc2cccnc2)cc1 + Cc1cncc(-c2nc(NCCc3c[nH]c4ccccc34)c3ncn(C(C)C)c3n2)c1 and print it.
28.2

Retrieve viability, T/C measured for COc1ccc([C@@H](O)c2cc(-c3ncnc4cc(N5CCOCC5)ccc34)c(F)cc2Cl)nn1 + Cc1cncc(-c2nc(NCCc3c[nH]c4ccccc34)c3ncn(C(C)C)c3n2)c1 and print it.
94.5

Retrieve viability, T/C measured for CC1(C)CCC(CN2CCN(c3ccc(C(=O)NS(=O)(=O)c4ccc(NCC5CCOCC5)c([N+](=O)[O-])c4)c(Oc4cnc5[nH]ccc5c4)c3)CC2)=C(c2ccc(Cl)cc2)C1 + CC(CO)NC(=O)c1cc(-c2ccc(Cl)cc2)nn(-c2cnn(C)c2)c1=O and print it.
95.8

Retrieve viability, T/C measured for Nc1ccccc1NC(=O)c1ccc(CNC(=O)OCc2cccnc2)cc1 + Cc1ccccc1N=Nc1ccc(NC(=O)c2ccnn2C)c(C)c1 and print it.
68.8

====

tested on: DMS-114 complex spheroids with HUVEC/MSC, growth % test/control; test: Anticancer human tumor DMS-114 cell line growth inhibition [AhR]; conditions: second compound 0.1 µM; first compound 0.1 µM; active compounds read low;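 also: spheroids exposed to agents for 7 days before readout; 100% = DMSO vehicle control wells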
ASSAY ENDPOINT: viability, T/C (%)
All answers are understood in %, so give the number only.

Retrieve viability, T/C measured for NS(=O)(=O)OCC1CC(n2ccc3c(NC4CCc5ccccc54)ncnc32)CC1O (centres undefined) + Cc1cncc(-c2nc(NCCc3c[nH]c4ccccc34)c3ncn(C(C)C)c3n2)c1 and print it.
36

Retrieve viability, T/C measured for CC1(C)CCC(CN2CCN(c3ccc(C(=O)NS(=O)(=O)c4ccc(NCC5CCOCC5)c([N+](=O)[O-])c4)c(Oc4cnc5[nH]ccc5c4)c3)CC2)=C(c2ccc(Cl)cc2)C1 + CC(CO)NC(=O)c1cc(-c2ccc(Cl)cc2)nn(-c2cnn(C)c2)c1=O and print it.
101

Retrieve viability, T/C measured for O=C(C=Cc1cccc(S(=O)(=O)Nc2ccccc2)c1)NO + CC(CO)NC(=O)c1cc(-c2ccc(Cl)cc2)nn(-c2cnn(C)c2)c1=O and print it.
77.6

Retrieve viability, T/C measured for Nc1ncn(C2CC(O)C(CO)O2)c(=O)n1 (centres undefined) + CC(CO)NC(=O)c1cc(-c2ccc(Cl)cc2)nn(-c2cnn(C)c2)c1=O and print it.
96.5

Retrieve viability, T/C measured for COc1cc(C2c3cc4c(cc3C(OC3OC5COC(C)OC5C(O)C3O)C3COC(=O)C23)OCO4)cc(OC)c1O (centres undefined) + Cc1ccccc1N=Nc1ccc(NC(=O)c2ccnn2C)c(C)c1 and print it.
99.1

Retrieve viability, T/C measured for CC(C)c1c(-c2ccccc2)nc2c(C#N)c[nH]n2c1=O + Cc1ccccc1N=Nc1ccc(NC(=O)c2ccnn2C)c(C)c1 and print it.
108

Retrieve viability, T/C measured for CC(C)c1c(-c2ccccc2)nc2c(C#N)c[nH]n2c1=O + Cc1cncc(-c2nc(NCCc3c[nH]c4ccccc34)c3ncn(C(C)C)c3n2)c1 and print it.
100

Retrieve viability, T/C measured for CC1COCCN1c1cc(C2(S(C)(=N)=O)CC2)nc(-c2ccnc3[nH]ccc23)n1 (centres undefined) + Cc1ccccc1N=Nc1ccc(NC(=O)c2ccnn2C)c(C)c1 and print it.
100

Retrieve viability, T/C measured for CC1(C)CCC(CN2CCN(c3ccc(C(=O)NS(=O)(=O)c4ccc(NCC5CCOCC5)c([N+](=O)[O-])c4)c(Oc4cnc5[nH]ccc5c4)c3)CC2)=C(c2ccc(Cl)cc2)C1 + Cc1cncc(-c2nc(NCCc3c[nH]c4ccccc34)c3ncn(C(C)C)c3n2)c1 and print it.
92.7

====

Would you kindly list viability, T/C for each of these compounds?
test system: DMS-114 complex spheroids with HUVEC/MSC, growth % test/control; test: Anticancer human tumor DMS-114 cell line growth inhibition [AhR]; details: second compound 10 µM; first compound 1 µM; active compounds read low;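 also: spheroids exposed to agents for 7 days before readout; 100% = DMSO vehicle control wells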
All answers are understood in %, so give the number only.

Retrieve viability, T/C measured for O=C(c1cc(Cc2n[nH]c(=O)c3ccccc23)ccc1F)N1CCN(C(=O)C2CC2)CC1 + CC(CO)NC(=O)c1cc(-c2ccc(Cl)cc2)nn(-c2cnn(C)c2)c1=O and print it.
86

Retrieve viability, T/C measured for NS(=O)(=O)OCC1CC(n2ccc3c(NC4CCc5ccccc54)ncnc32)CC1O (configuration not stated) + Cc1cncc(-c2nc(NCCc3c[nH]c4ccccc34)c3ncn(C(C)C)c3n2)c1 and print it.
3.49

Retrieve viability, T/C measured for Nc1ncn(C2CC(O)C(CO)O2)c(=O)n1 (configuration not stated) + Cc1ccccc1N=Nc1ccc(NC(=O)c2ccnn2C)c(C)c1 and print it.
87.6

Retrieve viability, T/C measured for Nc1ccccc1NC(=O)c1ccc(CNC(=O)OCc2cccnc2)cc1 + Cc1cncc(-c2nc(NCCc3c[nH]c4ccccc34)c3ncn(C(C)C)c3n2)c1 and print it.
10.3

Retrieve viability, T/C measured for O=C(C=Cc1cccc(S(=O)(=O)Nc2ccccc2)c1)NO + Cc1ccccc1N=Nc1ccc(NC(=O)c2ccnn2C)c(C)c1 and print it.
65.8

Retrieve viability, T/C measured for COc1cc(C2c3cc4c(cc3C(OC3OC5COC(C)OC5C(O)C3O)C3COC(=O)C23)OCO4)cc(OC)c1O (configuration not stated) + Cc1cncc(-c2nc(NCCc3c[nH]c4ccccc34)c3ncn(C(C)C)c3n2)c1 and print it.
10.2

Retrieve viability, T/C measured for CC1COCCN1c1cc(C2(S(C)(=N)=O)CC2)nc(-c2ccnc3[nH]ccc23)n1 (configuration not stated) + Cc1ccccc1N=Nc1ccc(NC(=O)c2ccnn2C)c(C)c1 and print it.
89.6
